Field: CC50. Provide a value for each of the molecules that follow.
Experiment: Cytotoxicity against DENV infected human Huh-7 cells assessed as reduction in cell viability by alamar blue assay
Format: cell-based
Conditions: DENV-infected Huh-7 cells

Illustrative cases are given below, each with its answer.
C#Cc1cccc(Nc2c(C#N)cnc3cc(OC)c(OC)cc23)c1: > 10 µM
FC(F)(F)c1ccc2nccc(Nc3cccc(Br)c3)c2c1: > 10 µM
COc1ccc(Nc2ccnc3ccc(C(F)(F)F)cc23)c(OC)c1: > 10 µM

Give me CC50 for each of these molecules, listed below.
1. FC(F)(F)c1ccc2nccc(Nc3ccc(Cl)c(Cl)c3)c2c1
2. Fc1cc(Cl)cc(Nc2ccnc3ccc(C(F)(F)F)cc23)c1

output:
> 10 µM
> 10 µM

Give me CC50 for each of these molecules, listed below.
1. C#Cc1cccc(Nc2ccnc3ccc(C(F)(F)F)cc23)c1
2. C#Cc1cccc(Nc2c(C#N)cnc3cc(OC)ccc23)c1
3. FC(F)(F)c1ccc2nccc(Nc3ccc4c(c3)OCO4)c2c1
4. C#Cc1cccc(Nc2ncnc3cc(OC)c(OC)cc23)c1
5. FC(F)(F)c1ccc2nccc(Nc3cccc(I)c3)c2c1
6. COc1cccc(Nc2ccnc3cc(OC)c(OC)cc23)c1
7. COc1cc2nccc(Nc3cccc(Br)c3)c2cc1OC
8. FC(F)(F)c1cccc(Nc2ccnc3ccc(C(F)(F)F)cc23)c1

output:
> 10 µM
> 10 µM
> 10 µM
> 10 µM
> 10 µM
> 10 µM
> 10 µM
> 10 µM

Give me CC50 for each of these molecules, listed below.
1. Fc1ccc(Nc2ccnc3ccc(C(F)(F)F)cc23)cc1
2. CC(=O)c1cccc(Nc2ccnc3ccc(C(F)(F)F)cc23)c1
3. C#Cc1cccc(Nc2ncnc3cc(OC)c(OC)cc23)c1F
4. COc1cccc(Nc2ccnc3ccc(C(F)(F)F)cc23)c1
5. COc1cc(Nc2ncnc3ccc(C(F)(F)F)cc23)cc(OC)c1OC
6. FC(F)(F)c1ccc2nccc(Nc3cccc(Cl)c3)c2c1

output:
1. > 10 µM
2. > 10 µM
3. > 10 µM
4. > 10 µM
5. > 10 µM
6. > 10 µM

Give me CC50 for each of these molecules, listed below.
1. COc1ccc(OC)c(Nc2ccnc3ccc(C(F)(F)F)cc23)c1
2. C#Cc1cccc(Nc2ncnc3ccc(OC)cc23)c1
3. N#Cc1ccccc1Nc1ccnc2ccc(C(F)(F)F)cc12
4. Fc1ccc(Nc2ccnc3ccc(C(F)(F)F)cc23)cc1F
5. CS(=O)(=O)c1ccc(Nc2ccnc3ccc(C(F)(F)F)cc23)cc1

output:
1. > 10 µM
2. > 10 µM
3. > 10 µM
4. > 10 µM
5. > 10 µM

Sourced from ChEMBL document CHEMBL5036348
